B1: Double-stranded RNA-binding protein Staufen homolog 1, residues 183 to 249; numbered along this chain, O95793 (parent)
chain: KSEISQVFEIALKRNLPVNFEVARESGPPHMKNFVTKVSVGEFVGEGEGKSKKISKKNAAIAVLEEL

Variants of: B1
Procedure text: abundance fitness (aPCA) (normalised: wild type 0, dead -1); higher = more abundant; growth selection in yeast, the domain comes from the species named
Condition summary: Homo sapiens
Reported abundance fitness maps to class as: bin A = under -0.4, bin B = from -0.4 up to -0.1, bin C = -0.1 and over

INSERT INTO measurements (mutation_string, cat) VALUES
  ('I61R', 'bin C'),
  ('P29A', 'bin C'),
  ('N19A', 'bin C'),
  ('K50T', 'bin C'),
  ('E48P', 'bin A'),
  ('S51M', 'bin A'),
  ('F8L', 'bin B'),
  ('K50A', 'bin C'),
  ('L12M', 'bin C'),
  ('Q6T', 'bin B'),
  ('N33F', 'bin B'),
  ('I10T', 'bin A'),
  ('P17L', 'bin B'),
  ('V38Q', 'bin A'),
  ('I4G', 'bin A'),
  ('E3I', 'bin C'),
  ('A59I', 'bin A'),
  ('V35I', 'bin C'),
  ('A23P', 'bin C'),
  ('K32I', 'bin B'),
  ('F20P', 'bin A'),
  ('A11G', 'bin C'),
  ('E65M', 'bin B'),
  ('P28C', 'bin B'),
  ('F34V', 'bin A'),
  ('V38D', 'bin A'),
  ('K13D', 'bin B'),
  ('V35G', 'bin A'),
  ('E21N', 'bin B'),
  ('V18E', 'bin A'),
  ('S55I', 'bin A'),
  ('V35N', 'bin B'),
  ('E66S', 'bin C'),
  ('V44A', 'bin B'),
  ('I4C', 'bin A'),
  ('L12S', 'bin C'),
  ('G45F', 'bin B'),
  ('K56L', 'bin B'),
  ('E9H', 'bin B'),
  ('H30R', 'bin C'),
  ('L12R', 'bin C'),
  ('V38E', 'bin A'),
  ('G49E', 'bin A'),
  ('E48K', 'bin C'),
  ('N19C', 'bin C'),
  ('V7F', 'bin A'),
  ('I4E', 'bin A'),
  ('K52Y', 'bin B'),
  ('R24K', 'bin C'),
  ('E65V', 'bin A'),
  ('K37H', 'bin B'),
  ('V7Y', 'bin A'),
  ('G47P', 'bin A'),
  ('N19R', 'bin C'),
  ('R14N', 'bin B'),
  ('G47R', 'bin A'),
  ('E65H', 'bin C'),
  ('L12E', 'bin C'),
  ('Q6G', 'bin A'),
  ('F8H', 'bin C'),
  ('L64E', 'bin A'),
  ('E46K', 'bin C'),
  ('P29D', 'bin C'),
  ('V40F', 'bin A'),
  ('L67Y', 'bin A'),
  ('K50I', 'bin B'),
  ('R14E', 'bin B'),
  ('L67A', 'bin A'),
  ('V40G', 'bin A'),
  ('A60G', 'bin A'),
  ('K32S', 'bin B'),
  ('I61H', 'bin B'),
  ('E25H', 'bin C'),
  ('E42A', 'bin C'),
  ('V40P', 'bin A');
